tested.system: α1 adrenergic receptors
protocol: Radioreceptor binding to native α1 adrenergic receptors ([3H]prazosin, rat cerebral cortex membranes)
Here the recorded pKi is given for each entry.
// scale note: pKi = -log10(conc_M); give the bare number

Before answering, review these 2 worked examples.
| compound | observed.measurement |
| --- | --- |
| COc1ccccc1N1CCN(CCC(C(N)=O)(c2ccccc2)c2ccccn2)CC1 (stereo not drawn) | 5.88 |
| COc1ccccc1N1CCN(CCC(O)(c2ccccn2)c2ccccn2)CC1 | 6.94 |

Noted for COc1ccccc1N1CCN(CCC(C#N)(c2ccccc2)c2ccccn2)CC1.Cl.Cl (stereo not drawn) [Ex. 7, dihydrochloride] : its pKi reads 6.40

* * *

tested.system: human 5-HT1A serotonergic receptor (Homo sapiens, UniProt P08908)
Construct: expressed in transfected cells; host or cells: HeLa (human), stably transfected; cell membranes
Sequence (P08908 whole entry): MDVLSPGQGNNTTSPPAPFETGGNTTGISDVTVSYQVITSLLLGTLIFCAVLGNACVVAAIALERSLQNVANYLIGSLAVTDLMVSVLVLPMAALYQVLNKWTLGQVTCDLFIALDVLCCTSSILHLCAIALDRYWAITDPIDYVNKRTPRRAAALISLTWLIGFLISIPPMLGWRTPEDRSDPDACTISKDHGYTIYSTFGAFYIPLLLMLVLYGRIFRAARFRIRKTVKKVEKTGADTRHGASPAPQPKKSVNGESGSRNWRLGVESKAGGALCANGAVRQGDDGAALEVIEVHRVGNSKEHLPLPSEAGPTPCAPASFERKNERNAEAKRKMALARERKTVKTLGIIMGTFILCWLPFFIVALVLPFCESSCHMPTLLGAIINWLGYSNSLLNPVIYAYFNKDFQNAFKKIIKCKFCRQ
protocol: Radioreceptor binding to recombinant human 5-HT1A receptors ([3H]8-OH-DPAT, HeLa cell membranes)
property.measured: Ki (nM)
# number only, unit nM dropped from output

| compound | Ki (nM) |
| --- | --- |
| COc1ccccc1N1CCN(CCC(C(N)=O)(c2ccccn2)c2ccccc2[N+](=O)[O-])CC1 (centres unmarked) | 5.18 |
| COc1ccccc1N1CCN(CCC(C#N)(c2ccccn2)c2ccccn2)CC1 | 13.3 |
| COc1ccccc1N1CCN(CCC(C(N)=O)(c2ccccc2)c2ccccn2)CC1 (centres unmarked) | 19.3 |
| COc1ccccc1N1CCN(CCC(C#N)(c2ccccc2)c2ccccc2[N+](=O)[O-])CC1 (centres unmarked) | 1.45 |

# Ki measured on human 5-HT1A serotonergic receptor (Homo sapiens, UniProt P08908) for item COc1ccccc1N1CCN(CCC(C(N)=O)(c2ccccc2)c2ccccc2[N+](=O)[O-])CC1 (centres unmarked) = 2.3
